FYI, the data here is from patent US20090053213A1.

Study Target: T1, human GM-CSF (human, UniProt P04141 18-144)
T1 construct: mature; the preparation is named under assay or readout; also called hGM-CSF; recombinant human GM-CSF
T1 sequence (P04141 18-144): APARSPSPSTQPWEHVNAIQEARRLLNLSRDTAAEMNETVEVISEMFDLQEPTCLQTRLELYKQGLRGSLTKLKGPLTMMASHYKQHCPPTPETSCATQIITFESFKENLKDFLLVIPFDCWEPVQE
Test Name: solution equilibrium titration (SET, ECL/BioVeris), Fab with human GM-CSF (Leucomax) in solution
Entries and their measured Kd follow.
Report only the number, with the unit nM understood.

See these solved cases before continuing.
MOR04297 Fab (Fab, V domains shown, Fab with FLAG and 6xHis tags) VH: QVQLVQSGAEVKKPGSSVKVSCKASGGTFNSFLISWVRQAPGQGLEWMGGIIPIFGTANYAQKFQGRVTITADESTSTAYMELSSLRSEDTAVYYCARKFISDSWGQGTLVTVSS VL: DIQMTQSPSSLSASVGDRVTITCRASQTINNYLNWYQQKPGKAPKLLIYTASNLQSGVPSRFSGSGSGTDFTLTISSLQPEDFATYYCQQYSWVPHTFGQGTKVEIKR : 0.0492
MOR04252 Fab (Fab, V domains shown, Fab with FLAG and 6xHis tags) VH: QVQLVESGGGLVQPGGSLRLSCAASGFTFSSYWMNWVRQAPGKGLEWVSGIENKYAGGATYYAASVKGRFTISRDNSKNTLYLQMNSLRAEDTAVYYCARGFGTDFWGQGTLVTVSS VL: DIELTQPPSVSVAPGQTARISCSGDSIGKKYAYWYQQKPGQAPVLVIYKKRPSGIPERFSGSNSGNTATLTISGTQAEDEADYYCSSWDSTGLVFGGGTKLTVLG : 0.006

Kd measured on MOR03682 Fab (Fab, V domains shown, Parental HuCAL GOLD Fab with C-terminal FLAG and 6xHis tags) VH: QVQLVQSGAEVKKPGSSVKVSCKASGGTFNSFLISWVRQAPGQGLEWMGGIIPIFGTANYAQKFQGRVTITADESTSTAYMELSSLRSEDTAVYYCARKFISDSWGQGTLVTVSS VL: DIQMTQSPSSLSASVGDRVTITCRASQTINNYLNWYQQKPGKAPKLLIYTASNLQSGVPSRFSGSGSGTDFTLTISSLQPEDFAVYYCQQYSGSPMTFGQGTKVEIKR = 11.4

Kd measured on MOR03684 Fab (Fab, V domains shown, carries two C-terminal tags (FLAG and 6xHis); also called antibody no) VH: QVQLVESGGGLVQPGGSLRLSCAASGFTFSSHWMSWVRQAPGKGLEWVSNGIFSDGSATYYADSVKGRFTISRDNSKNTLYLQMNSLRAEDTAVYYCARFQGYGGGFDYWGQGTLVTVSS VL: DIELTQPPSVSVAPGQTARISCSGDNLPGKYVHWYQQKPGQAPVLVIYYDSNRPSGIPERFSGSNSGNTATLTISGTQAEDEADYYCQSRTQTTIVFGGGTKLTVLG = 16
